- assay-comment: Plasma PK of major maoto compounds by LC-MS/MS after oral administration of maoto
- Format: in vivo, rat
- assay-setup: Sprague-Dawley, rat, plasma, po, 1 g/kg; read-out: Tmax
- Experimental: 1 (7:00-19:00). Rats were maintained and used for the experiments in accordance 2 with the Guidelines for the Care and Use of Laboratory Animals of Tsumura & 3 CO. All experimental procedures were carried out upon approval from the 4 Laboratory Animal Committee of Tsumura & CO. 8 administered to 16-h fasted rats (n=3). […] 14 and 4 g/10mL/kg) were determined by LC-MS/MS. Based on a literature search, […] 1 Plasma PK data were analyzed by noncompartmental modeling using […]
measurement-kind: Tmax (min)
Numeric only. Scale: min

Q. Any idea what Tmax was measured for CC(C(O)c1ccccc1)N(C)C (racemic) ?
A. 15

Q. Any idea what Tmax was measured for Oc1cc(O)c2c(c1)O[C@H](c1ccc(O)c(O)c1)[C@H](O)C2 [Epicatechin] ?
A. 30

Q. Any idea what Tmax was measured for Oc1cc(O)c2c(c1)O[C@H](c1cc(O)c(O)c(O)c1)[C@H](O)C2 [Epigallocatechin] ?
A. 30

---

- assay-comment: Common metabolites in rat plasma by GC-MS/MS after polyI:C and/or maoto
- Assay type: in vivo
- assay-setup: P/C (polyI:C vs control), 1h
- Experimental: Distilled water and saline were administered as vehicle to rats in each control group. […] Plasma cytokine levels were measured by ELISA or multiplex immunoassay; common metabolites and lipid mediators were analyzed by GC-MS/MS and LC-MS/MS, respectively. 1 The concentrations of TNF-α and IL-6 in plasma samples were evaluated by 2 ELISA (R&D Systems, Minneapolis, MN, USA). […] 3 (Milliplex, Merck KGaA, Darmstadt, Germany) were performed to quantify the […] If any outliers in the data set were determined to […]
measurement-kind: log2FC of plasma level
Answer with a bare number; do not write a unit.

Q. Any idea what log2FC of plasma level was measured for O=C(O)Cc1cc(O)ccc1O ?
A. -0.05

Q. Any idea what log2FC of plasma level was measured for NCC(=O)O ?
A. -0.03

Q. Any idea what log2FC of plasma level was measured for O=C[C@H](O)[C@H](O)[C@H](O)CO ?
A. 1.05

Q. Any idea what log2FC of plasma level was measured for NC(N)=O ?
A. -0.01

---

- assay-comment: Plasma PK of major maoto compounds by LC-MS/MS after oral administration of maoto
- Type: in vivo, rat
- assay-setup: Sprague-Dawley, rat, plasma, po, 2 g/kg; read-out: Tmax
- Experimental: 1 (7:00-19:00). Rats were maintained and used for the experiments in accordance 2 with the Guidelines for the Care and Use of Laboratory Animals of Tsumura & 3 CO. All experimental procedures were carried out upon approval from the 4 Laboratory Animal Committee of Tsumura & CO. 8 administered to 16-h fasted rats (n=3). […] 14 and 4 g/10mL/kg) were determined by LC-MS/MS. Based on a literature search, […] 1 Plasma PK data were analyzed by noncompartmental modeling using […]
Exercise: for every item that follows, state its recorded Tmax.
Numeric only. Scale: min

Q. Any idea what Tmax was measured for Oc1cc(O)c2c(c1)O[C@H](c1cc(O)c(O)c(O)c1)[C@H](O)C2 [Epigallocatechin] ?
A. 30

Q. Any idea what Tmax was measured for N#C[C@H](O[C@@H]1O[C@H](CO)[C@@H](O)[C@H](O)[C@H]1O)c1ccccc1 [Prunasin] ?
A. 30

Q. Any idea what Tmax was measured for COc1cc2ccc(=O)oc2cc1O [Scopoletin] ?
A. 15

Q. Any idea what Tmax was measured for CN[C@@H](C)[C@H](O)c1ccccc1 [l-Ephedrine, l-ephedrine] ?
A. 60

Q. Any idea what Tmax was measured for N#C[C@H](O[C@@H]1O[C@H](CO[C@@H]2O[C@H](CO)[C@@H](O)[C@H](O)[C@H]2O)[C@@H](O)[C@H](O)[C@H]1O)c1ccccc1 [Amygdalin] ?
A. 60

Q. Any idea what Tmax was measured for CN[C@@H](C)[C@@H](O)c1ccccc1 [d-Pseudoephedrine, d-pseudoephedrine] ?
A. 15

Q. Any idea what Tmax was measured for O=C(/C=C/c1ccc(O)cc1)c1ccc(O)cc1O [Isoliquiritigenin] ?
A. 15

Ref: paper PMC5654968
